For each record, write down the corresponding CL.
Assay: Pharmacokinetic study in mice, intravenous 1 mg/kg
Assay type: in vivo, C57BL/6 mice
Write it as a number; the unit mL/min/kg goes unstated.

// field: CL; key: NC(=O)c1ncc(-n2ccc3cc(C(=O)N4CCCCC4)cnc32)cn1 ; value = 128.8

Form: molecule = COCCNC(=O)c1ccc(-n2ccc3cc(C(=O)N4CCCCC4)cnc32)cc1 ; CL = 113.07

Entry NC(=O)c1ccc(-n2ccc3cc(C(=O)N4CCC(F)CC4)cnc32)cc1 , CL reported as 106.68

Short answer for CNC(=O)c1ccc(-n2ccc3cc(C(=O)N4CCCCC4)cnc32)cc1 : CL was 106.5

CL measured on CNC(=O)c1ccc(-n2ccc3cc(C(=O)N4CCC(F)CC4)cnc32)cc1 = 77.84

The reported CL of the molecule O=C(c1cnc2c(ccn2-c2ccc(O)nc2)c1)N1CCCCC1 was 173.02

The reported CL of the molecule Cc1c(C(=O)N2CCC(F)CC2)cnc2c1ccn2-c1ccc(C(N)=O)cc1 was 64.24

Looking up COCCNC(=O)c1ccc(-n2ccc3cc(C(=O)N4CCC(F)CC4)cnc32)cc1 , I see its CL listed as 126.59

Lab book: CL of CN(C)C(=O)c1ccc(-n2ccc3cc(C(=O)N4CCCCC4)cnc32)cc1 noted as 63.29

Cited source: patent US20230390274A1
